B1: OR4K15 (parent)
chain: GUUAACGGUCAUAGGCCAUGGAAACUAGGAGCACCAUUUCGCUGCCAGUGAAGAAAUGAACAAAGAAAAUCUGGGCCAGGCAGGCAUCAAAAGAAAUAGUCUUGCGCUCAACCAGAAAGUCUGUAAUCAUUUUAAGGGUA

Variants of: B1
Test: self-cleavage, relative activity (ratio to wild type); higher = more cleavage; in vitro, sequencing; the parent is a self-cleaving ribozyme
Measurement Kind: self-cleavage
Form: value (number only, do not type unit).

Inquiry: self-cleavage lookup needed for GUUAACGGUCAUAGGCCAUGGAAACUAGGAGCACCAUUUCGCUGCCAGUGAAGAAAUGAACAAAGAAAAUCUGGGCCGGGCAGGCAUCAAAAGAAAUAGUCUUGCGCUCAACCAGAAAGUCUGUAAUCAUUUUAAGGGCA [A78G U139C] , thanks.
Reply text: 0.24

Inquiry: self-cleavage lookup needed for GUUAACGGUCAUAGGCCAUGGAAACUAGGAGCACCAUUUCGCUGCCAGUGAAGAAAUGAACGAAGAAAAUCUGGGCCAGGCAGGCAUCAAAAGAUAUAGUCUUGCGCUCAACCAGAAAGUCUGUAAUCAUUUUAAGGGUA [A62G A95U] , thanks.
Reply text: 2

Inquiry: self-cleavage lookup needed for GUUAACGGUCAUAGGCCAUGGAAACUAGGAGCACCAUUUCGCUGCCAGUGAAGAAAUGAACAAAGAAAAUCUGGGCCAGGCAGGCAUCAAAAGAAACAGUCUUGCGCUCAACCAGAAAGUCUGUAAUCAUUAUAAGGGUA [U97C U132A] , thanks.
Reply text: 1.28
